Data origin: PubChem BioAssay

Study Target: Voltage-gated potassium channel subunit beta-2 (Rattus norvegicus) (UniProt P62483)
Sequence (P62483 whole entry, looked up): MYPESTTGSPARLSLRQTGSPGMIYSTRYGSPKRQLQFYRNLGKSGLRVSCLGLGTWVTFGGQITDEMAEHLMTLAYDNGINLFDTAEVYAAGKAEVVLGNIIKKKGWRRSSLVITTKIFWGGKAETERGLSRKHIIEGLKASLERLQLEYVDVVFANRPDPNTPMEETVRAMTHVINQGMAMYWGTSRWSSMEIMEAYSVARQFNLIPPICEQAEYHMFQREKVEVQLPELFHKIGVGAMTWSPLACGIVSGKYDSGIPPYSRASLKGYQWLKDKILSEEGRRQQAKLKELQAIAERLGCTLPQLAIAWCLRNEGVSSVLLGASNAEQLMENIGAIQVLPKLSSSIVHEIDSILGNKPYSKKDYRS
Experimental Details: inhibitors of rat Kvbeta2 reductase activity – biochemical, NADPH fluorescence, primary screen (AID 622);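 also: slope of raw intensity against log time taken from 70 to 1610 s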
Condition Details: recombinant KvBeta, 4-cyanobenzaldehyde reduction, at 10 µM, stronger effect = higher value
Class boundaries, taken from values of fluorescence slope, are as follows: low band = under -0.5, middle band = from -0.5 up to -0.4, high band = -0.4 and over

# Molecule, Class
rows = [
    ("CCN(CC)CCCNC(=O)c1cn(C)c2ccc(S(=O)(=O)N(C)C)cc2c1=O", "low band"),
]

Inquiry: For the record COCC(C)NC(=O)NC(=O)c1ccc(Cl)cc1 (configuration not stated) , report the class its fluorescence slope corresponds to.
Reply text: middle band

Inquiry: Quick one: `COc1cccc(N(C(C)=O)c2nc(C)cc(C)c2C#N)c1`
Reply text: low band

Inquiry: Quick one: `CCOC(=O)c1cc2sc(C)cc2n1CC(=O)NCc1ccc(F)cc1`
Reply text: high band

Inquiry: Quick one: `CCN1C(=O)c2cccc3c(NC(=O)c4ccc5c(c4)OCCO5)ccc1c23`
Reply text: middle band

Inquiry: Quick one: CCC(Sc1ncccc1C(=O)O)C(=O)N1CCCC1 (configuration not stated)
Reply text: high band

Inquiry: Quick one: `CCOc1cc(C(=O)N(C)Cc2cc3ccccc3[nH]c2=O)cc(OCC)c1OCC`
Reply text: high band

Inquiry: Quick one: `COc1ccc(NC(=O)c2cc(C)on2)cc1OC`
Reply text: low band

Inquiry: Quick one: COc1ccc(Br)cc1CNC(=O)C1CCCN(S(C)(=O)=O)C1 (configuration not stated)
Reply text: high band

Inquiry: Quick one: COC(=O)CSC1=C(C#N)C(c2ccccc2)CC(=O)N1 (configuration not stated)
Reply text: high band

Inquiry: Quick one: CCOC(=O)N1CCC(N2C(=O)c3ccccc3C2Nc2cc(Cl)c(OC)cc2OC)CC1 (configuration not stated)
Reply text: low band

Inquiry: Quick one: `O=C(C1CCN(S(=O)(=O)c2cccc3cccnc23)CC1)N1CCN(C2CCCCC2)CC1`
Reply text: low band

Inquiry: Quick one: `CN(C)c1ccc(/C=C/c2ccncc2)cc1`
Reply text: high band

Inquiry: Quick one: `Oc1cc(NCc2cccnc2)ccc1-c1nc2ccccc2o1`
Reply text: middle band

Inquiry: Quick one: `O=c1oc2ccccc2cc1NCc1ccccc1O`
Reply text: low band

Inquiry: Quick one: `COC(=O)c1cccc(NC(=O)CSc2nnc(COc3ccc(C#N)cc3)n2-c2ccccc2)c1`
Reply text: low band

Inquiry: Quick one: `C/C(N)=C(/C#N)C(=O)CSc1nnc(Nc2c(C)cccc2C)s1`
Reply text: low band

Inquiry: Quick one: `Oc1ccccc1-c1cc(C(F)(F)C(F)F)[nH]n1`
Reply text: high band

Inquiry: Quick one: `CCOC(=O)c1c(NC(=O)c2ccn(CC)n2)sc2c1CCCC2`
Reply text: high band

Inquiry: Quick one: `C=CCOC(=O)CCC(=O)Nc1cc(OC)nc(OC)n1`
Reply text: middle band

Inquiry: Quick one: C=CCSC1=C(C#N)C(c2ccccc2C)CC(=O)N1 (configuration not stated)
Reply text: low band

Inquiry: Quick one: COc1cc2c(cc1OC)C(C)N(C(=O)c1cc3n(n1)C(C(F)(F)F)CC(c1ccco1)N3)CC2 (configuration not stated)
Reply text: low band

---

Attribute: nuclei count
Experimental Details: reduction of polyQ htt aggregates in cells – imaging, exon1htt(103Q)mCFP cells, high-content imaging, primary screen (AID 483);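 also: compound exposure lasted 3 days before fixation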;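 as to nuclei count: percent of the per-plate median nuclei count of sample wells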
Condition Details: exon1htt(103Q)mCFP cell line, aggregate imaging, at 2 µM; measured here: cell count, toxicity
Lab book: enter the figure in %, no units written.

Known nuclei count results, listed for orientation:
# Molecule, nuclei count [%]
measured = [
    ("COc1ccc(C(=O)N2CCN(S(=O)(=O)c3cc(Cl)ccc3OC)CC2)cc1", 64.6),
    ("O=C(O)CCCC(=O)Nc1nc(-c2ccc(F)cc2)cs1", 94.3),
    ("Nc1c(S(=O)(=O)c2cccs2)c2nc3ccccc3nc2n1CC1CCCO1 (centres undefined)", 117),
    ("COc1ccc(C2(C(=O)N3CCCC3)CCOCC2)cc1OC", 97.5),
    ("Cc1ccc2cc(C#N)c(NCCCNC(=O)C3CCCO3)nc2c1 (centres undefined)", 82.7),
    ("Cc1ccc(C(C(=O)NC(C)(C)C)N(C(=O)c2csnn2)c2cccc(F)c2)o1 (centres undefined)", 93.7),
    ("CCC(=O)Nc1c2c(nn1-c1ccccc1C)CSC2", 114),
    ("COc1ccc(C2c3c(oc4ccccc4c3=O)C(=O)N2c2ccc(C)cn2)cc1OC (centres undefined)", 75),
]

Inquiry: Using the record for `Oc1ccc2cccnc2c1` , report its nuclei count.
Reply text: 100

Inquiry: Quick one: `Cc1noc(C)c1COc1cccc(C(=O)Nc2ccc(C#N)cc2)c1`
Reply text: 94.2

Inquiry: Quick one: `C=CCNC(=O)c1cccc(Br)c1`
Reply text: 101

Inquiry: Quick one: `CCOc1ccccc1NC(=O)CSc1nnc(Cc2cccn2C)n1-c1ccc(F)cc1`
Reply text: 93.1

Inquiry: Quick one: COc1ccc(CN(CC(=O)NCC2CCCO2)C(=O)CNS(=O)(=O)c2ccc(C)cc2)cc1 (centres undefined)
Reply text: 119

Inquiry: Quick one: COc1ccccc1NC(=O)CSC1CC(=O)N(c2ccc3c(c2)OCO3)C1=O (centres undefined)
Reply text: 95.7

---

Experimental Details: inhibitors of TNFa-induced NFkB p65 translocation, primary screen, imaging, HUVEC, MLSMR starter and 10KST1 sets (AID 438);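 also: compound added about 3h40 before a 20 min TNFalpha stimulation; signal is the nuclear over cytoplasmic p65 intensity ratio per well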
Condition Details: HUVEC TNFa-induced p65 nuclear translocation; at 2 µM, stronger effect = higher value, 0% TNFa-plus-vehicle, 100% no-TNFa wells
Attribute: inhibition
Lab book: enter the figure in %, no units written.

# Molecule, Parameter, Value
data = [
    ("CC(=O)N(CCN(C(C)=O)c1ccccc1)c1ccccc1", "inhibition", -1.1),
    ("Cc1cc(Nc2ccccc2N2CCOCC2)n2ncnc2n1", "inhibition", 2),
    ("CCOC(=O)c1c(N)sn(-c2ccccc2)c1=S", "inhibition", -9.2),
    ("C=CCSC1=C(C#N)C(c2ccccc2Cl)CC(=O)N1 (stereo unspecified)", "inhibition", -6.5),
    ("O=C1c2ccccc2C(Nc2ccc(F)c(Cl)c2)N1Cc1ccco1 (stereo unspecified)", "inhibition", -11.6),
]

Proceeding to the next molecule to report its inhibition.
Inquiry: Using the record for `Cn1cccc1Cc1nnc(SCC(=O)N2CCOCC2)n1-c1ccc(F)cc1` , report its inhibition.
Reply text: 5.8

---

Study Target: Alpha-2C adrenergic receptor (Homo sapiens) (UniProt P18825)
Sequence (P18825 whole entry, looked up): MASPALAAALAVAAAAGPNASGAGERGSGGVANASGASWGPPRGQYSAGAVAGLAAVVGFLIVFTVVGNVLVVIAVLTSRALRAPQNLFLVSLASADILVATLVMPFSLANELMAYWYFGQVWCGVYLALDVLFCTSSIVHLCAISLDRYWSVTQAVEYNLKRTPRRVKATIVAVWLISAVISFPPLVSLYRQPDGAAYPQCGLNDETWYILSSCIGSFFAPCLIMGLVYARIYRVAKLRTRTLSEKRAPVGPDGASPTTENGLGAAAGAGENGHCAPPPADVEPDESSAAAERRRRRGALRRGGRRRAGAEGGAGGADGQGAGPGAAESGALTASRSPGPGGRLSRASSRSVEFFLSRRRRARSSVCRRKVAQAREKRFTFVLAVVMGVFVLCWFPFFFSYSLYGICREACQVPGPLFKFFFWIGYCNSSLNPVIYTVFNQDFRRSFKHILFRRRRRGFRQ
Experimental Details: compounds altering alpha2C-coupled GIRK flux – cell-based, HEK293 alpha2C/GIRK1/2, thallium flux, primary screen (AID 624);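 also: slope of fluorescence ratio to pre-addition baseline per second over 15 to 24 s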
Condition Details: thallium flux BTC fluorescence, at 10 µM, actives lie on both sides
Parameter: slope
Output: the number by itself.

Known slope results, listed for orientation:
# Query Smiles, Parameter, Value
rows = [
    ("CN(C(=O)c1ccccn1)c1nnc(-c2cccnc2)s1", "slope", 0.0044),
    ("CCCC(=O)Nc1ccccc1-c1nnn(CC(=O)Nc2ccc(OCC)cc2)n1", "slope", 0.00619),
]

Inquiry: Using the record for `O=C(CSc1ncnc2c1cnn2-c1ccccc1)Nc1ccccc1` , report its slope.
Reply text: 0.00569

---

Experimental Details: reduction of polyQ htt aggregates in cells – imaging, exon1htt(103Q)mCFP cells, high-content imaging, primary screen (AID 483);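 also: compound exposure lasted 3 days before fixation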
Condition Details: exon1htt(103Q)mCFP cell line, aggregate imaging, at 2 µM; stronger effect = higher value
Calls of active or inactive are those of the source.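 The calls were made as follows: active = visual image review flags a hit and inhibition of aggregation exceeds 20%; inconclusive = visual hit but inhibition at or below 20%; inactive = no hit on visual image review.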
Parameter: inhibition of aggregation

# Compound, inhibition of aggregation
measured = [
    ("CCOc1ccccc1NC(=O)CSc1nnc2c(CC)c(C)nc(N)n12", "1.5% (inactive)"),
    ("COc1ccccc1Nc1ccc(C(=O)NC2CCCCC2)cn1", "1.1% (inactive)"),
    ("CC1CCCN(C(=O)CN2C(=O)c3ccccc3C2=O)C1 (configuration not stated)", "15.5% (inactive)"),
]

Inquiry: Using the record for CCOc1ccc(C2CC(c3cccc(C)c3)n3ncnc3N2)cc1 (configuration not stated) , report its inhibition of aggregation.
Reply text: -18.7% (inactive)

Inquiry: Quick one: `O=C(CCNC(=O)c1ccc(Br)o1)NC1CCCC1`
Reply text: 35.3% (inactive)

Inquiry: Quick one: `COCCNC(=O)CN1C(=O)CSc2ncccc21`
Reply text: -43.1% (inactive)

Inquiry: Quick one: `C=CCn1c(=O)n(CCOC)c(=O)c2sc3ccccc3c21`
Reply text: -12% (inactive)

Inquiry: Quick one: `Cc1cc(Oc2ccc(Cl)cc2)nc(-c2ccccc2O)n1`
Reply text: 4.5% (inactive)

Inquiry: Quick one: COc1cc(NC(=O)C(C)Oc2ccccc2)c(C(=O)O)cc1OC (configuration not stated)
Reply text: -0.9% (inactive)

Inquiry: Quick one: CN(C)CC(C(=O)c1ccccc1)c1ccccc1 (configuration not stated)
Reply text: -28% (inactive)

Inquiry: Quick one: O=S(=O)(NCC(c1cccnc1)N1CCN(c2ccccc2)CC1)c1cc(F)ccc1F (configuration not stated)
Reply text: 9% (inactive)

Inquiry: Quick one: `CC(C)CCNc1cc(=O)n(C)c(=O)n1C`
Reply text: -15.5% (inactive)
